# run description: soluble on expression in E. coli; label from the status in PepcDB or PDB records

[
  {
    "chain sequence": "GWQAFKNDATEIIPELGEYPEPPPELENNKTMNRAENGGRPPHHPFETKDVSEYSCRELHFTRYVTDGPCRSAKPVTELVCSGQCGPARLLPNAIGRGKWWRPSGPDFRCIPDRYRAQRVQLLCPGGEAPRARKVRLVASCKCKRLTRFHNQSELKDFGTEAARPQKGRKPRPRARSAKANQAELENAY",
    "soluble on expression in E. coli": "soluble"
  },
  {
    "chain sequence": "MALIRATLPVVEPGRTEIHLPHWDGIEQQHGFIHGGVVGMIADSAAGYAAMTLVPAEASVLTVEYKMNLMAPAEGERLIARGEVVRAGRTLIVTRAEVLALRDGAERLCALMQQTIMVMHARPEKLDAPPAALEHHHHHH",
    "soluble on expression in E. coli": "not soluble"
  },
  {
    "chain sequence": "NEYLNNVKSKYEVQKQRIQIQNDTRYMNEIEAHYNELRRFRHDYQNMLISIDEYLKTDDLEGLQEYYQKNLAPVSNRVLKEKYNLEDLSRVKVKSIKSILFSKLSYAQSQEIEVHFDLKEPLIDITVNELDLDIALGIMLDNAIEASVGHADGEIMSAIFIEKNSTVFLIQNNVFEQLPPLWKLKEAGYSTKGKNRGIGLNSLSKIVNRNENMILETRVLGAVFLQRLTVKRVSQND",
    "soluble on expression in E. coli": "not soluble"
  },
  {
    "chain sequence": "GGDGNITTENIPVSEYDCLELEGGGMVVNYTQSDAPEGLEIKTDRNIFEKYEFNVENHKLKIRPKKEFRKHTNFRPTEFMVTANSRNLKKLAAAGSTHVNINSPLQAEEFEAGLAGSGIIQFHDTASFTNLKIEIAGSGDFVGHKVYCEELNGDMAGSNTIVLGGTVGIAEFSIAGSGTVRAFDCTMDELECKIAGSGDIEAFVVNKIKAEIAGSGSVKYKGDPQDIQKKVMGSGKIEKVE",
    "soluble on expression in E. coli": "soluble"
  }
]

* * *

# run description: soluble on expression in E. coli; label from the status in PepcDB or PDB records
property name: soluble on expression in E. coli

[
  {
    "chain sequence": "SMEEKLKKTNIIFVVGGPGSGKGTQCEKIVQKYGYTHLSTGDLLRSEVSSGSARGKKLSEIMEKGQLVPLETVLDMLRDAMVAKVNTSKGFLIDGYPREVQQGEEFERRIGQPTLLLYVDAGPETMTQRLLKRGETSGRVDDNEETIKKRLETYYKATEPVIAFYEKRGIVRKVNAEGSVDSVFSQVCTHLDALLN",
    "obs value": "soluble"
  },
  {
    "chain sequence": "MSLDEGLLNKVKERGTLLVGLEGTYPPFSFQGDDGKLTGFEVEFAQQLAKHLGVEASLKPTKWDGMLASLDSKRIDVVINQVTISDERKKKYDFSTPYTISGIQALVKKGNEGTIKTADDLKGKKVGVGLGTNYEEWLRQNVQGVDVRTYDDDPTKYQDLRVGRIDAILVDRLAALDLVKKTNDTLAVTGEAFSRQESGVALRKGNEDLLKAVNDAIAEMQKDGTLQALSEKWFGADVTEGHHHHHH",
    "obs value": "soluble"
  },
  {
    "chain sequence": "MKGMRGPGESRDTAMAVEQDIFDAVVMADERFHGEGYQEGYEEGSSLGIVEGKRYGMVHGAKIGSEIGCYRGFALAWKCLLHSGAGEKDSRKMKVVEALIALLQDFPYDDPTYEKLHEDLDRIRGKFRQLCSLLNVQPDFKVTPGGSGLAF",
    "obs value": "soluble"
  },
  {
    "chain sequence": "MGSDKIHHHHHHMPRVIKHPEIRREDILDHAQALFLTQGYDRASLNDVIASAGISKGAFYHYFASKEALLEALADRFARQALAGVQGVVDDPGLDPLGRLNGLLSQSRQAKIETAAEAWALFETMFRPENLVLFHRINLAANASFSPLLVKIIRQGVEDGTFRTFDPEGVADIVMQFGLATHDVVAKAIAGGSDADMEVAIEVLEKRVRLYEIALDRILGLPDGSIRIGEPGYIRAVMTARRKADKAR",
    "obs value": "not soluble"
  },
  {
    "chain sequence": "MAHHHHHHMSIFGVSSYFLWTQKGQTVLPLVRGSGFVMSFQQLNTFYSYHVMSAAHVTCPVKHRKLYGDTIGLKAIGERHISTRLLIPDEATHRVQSSFELEFRQQYMPNTDVASLRLCKEEQFKKAMLPPQDSGTGTASPLQVILPDLDRIEEGDELILCGVHTEEERANPNDDGLVLNPMRLIATCKAALLSLDYGTVLLASIDGPAEEARESGSGSAASASRPVTVPPLPLSMCGGPVLRRSSGRCVGVIAARVMANAPPRDPQSTSLYQDPYLDISEHIALHAHWPLDVAFVPIGEFYDPLRRCEM",
    "obs value": "not soluble"
  }
]

Looking for the measured soluble on expression in E. coli of MAQLTHINAAGEAHMVDVSAKAETVREARAEAFVTMRSETLAMIIDGRHHKGDVFATARIAGIQAAKRTWDLIPLCHPLMLSKVEVNLQAEPEHNRVRIETLCRLTGKTGVEMEALTAASVAALTIYDMCKAVQKDMVIGPVRLLAKSGGKSGDFKVEADD , can you help?
soluble

Which soluble on expression in E. coli is reported for this sequence? MNVVIVRYGEIGTKSRQTRSWFEKILMNNIREALVTEEVPYKEIFSRHGRIIVKTNSPKEAANVLVRVFGIVSISPAMEVEASLEKINRTALLMFRKKAKEVGKERPKFRVTARRITKEFPLDSLEIQAKVGEYILNNENCEVDLKNYDIEIGIEIMQGKAYIYTEKIKGWGGLPIGTEGRMIGILHDELSALAIFLMMKRGVEVIPVYIGKDDKNLEKVRSLWNLLKRYSYGSKGFLVVAESFDRVLKLIRDFGVKGVIKGLRPNDLNSEVSEITEDFKMFPVPVYYPLIALPEEYIKSVKERLGL
soluble
